# Tested on: CD2F1 mice, L1210 leukemia ip, survival T/C
# run.description: NCI In Vivo Anticancer Drug Screen. Data for tumor model L1210 Leukemia (intraperitoneal) in CD2F1 (CDF1) mice
# test.parameters: endpoint: mean survival time; dose: 50.0 mg/kg/injection; schedule: Q01DX009 (ip); vehicle: Klucel (hydroxypropylcellulose) (HPC); higher = longer survival
Toxic doses and inconclusive results are not listed.
measurement.name: T/C

Solved cases (2 shown):
[
  {
    "test.smiles": "C/C=C/C(Cc1ccc2ccccc2c1)(C(=O)OCC)C(=O)OCC",
    "assay.target": "CD2F1 mice, L1210 leukemia ip, survival T/C",
    "T/C": "91 % of control"
  },
  {
    "test.smiles": "O=S(=O)(NN=C(c1ccccc1)c1ccccc1)c1ccccc1",
    "assay.target": "CD2F1 mice, L1210 leukemia ip, survival T/C",
    "T/C": "92 % of control"
  }
]

Proceeding to the next compound to report its T/C.
[in] I am curious: what T/C value has been reported for CCOC(=O)c1ccc(NC(=O)Nc2nccs2)cc1 ?
[out] 97 % of control

----------
# System: CD2F1 mice, L1210 leukemia ip, survival T/C
# run.description: NCI In Vivo Anticancer Drug Screen. Data for tumor model L1210 Leukemia (intraperitoneal) in CD2F1 (CDF1) mice
# test.parameters: endpoint: mean survival time; dose: 400.0 mg/kg/injection; schedule: Q04DX002 (ip); vehicle: saline with Tween-80; higher = longer survival
Inconclusive results and toxic doses are left out.
Reported T/C values for a set of molecules

Below: 8 molecules and their reported T/C.
[
  {
    "molecule": "COc1ccccc1NC(=O)Oc1ccc(-c2ccccc2)cc1Cl",
    "T/C": "88 % of control"
  },
  {
    "molecule": "O=C(c1ccccc1)C(Br)C(Br)c1ccc([N+](=O)[O-])cc1 (stereo unspecified)",
    "T/C": "101 % of control"
  },
  {
    "molecule": "CCOc1ccccc1OC(=O)Nc1ccccc1OC",
    "T/C": "100 % of control"
  },
  {
    "molecule": "CC(C)OC(=O)COc1ccc(F)cc1F",
    "T/C": "89 % of control"
  },
  {
    "molecule": "CCCCNC(=O)c1ccc2c(c1)C(=O)N(CCCC)C2=O",
    "T/C": "93 % of control"
  },
  {
    "molecule": "CCCCCCCCCOc1ccc(Cl)cc1",
    "T/C": "93 % of control"
  },
  {
    "molecule": "CCCCCCCCCCCOc1ccc(Cl)cc1Cl",
    "T/C": "86 % of control"
  },
  {
    "molecule": "COc1ccc(NC(=O)Oc2ccc(Cl)cc2Cl)cc1",
    "T/C": "102 % of control"
  }
]

[in] Returns the measured T/C for the input molecule. Input: Nc1ccnc(SCc2ccc3ccccc3c2)n1
[out] 101 % of control

[in] What value of T/C has been recorded for this entry: CCCCSC(=O)Nc1ccccc1
[out] 92 % of control

[in] Return reported T/C; argument: CC(C)(C#N)OC(=O)Nc1cccc(Cl)c1
[out] 86 % of control

----------
# System: CD2F1 mice, L1210 leukemia ip, survival T/C
# run.description: NCI In Vivo Anticancer Drug Screen. Data for tumor model L1210 Leukemia (intraperitoneal) in CD2F1 (CDF1) mice
# test.parameters: endpoint: mean survival time; dose: 200.0 mg/kg/injection; schedule: Q01DX001 (ip); vehicle: saline with Tween-80; higher = longer survival
Toxic doses and inconclusive results are not listed.
measurement.name: T/C

Consider the worked cases shown below.
[
  {
    "compound": "COc1ccc(N=c2ssc(SC)c2-c2ccccc2)cc1",
    "T/C": "100 % of control"
  },
  {
    "compound": "C(=C\\c1ccccn1)/c1ccccc1",
    "T/C": "89 % of control"
  }
]

[in] Query: T/C; subject: CCc1c(Br)c(CC)c(CC)c(Br)c1CC
[out] 95 % of control

[in] I would be grateful if you could share the reported T/C for CC(O)CC1CCCC(C)N1 (stereo not drawn) .
[out] 101 % of control

[in] Returns the measured T/C for the input compound. Input: OCCOc1ccc2ccccc2c1
[out] 108 % of control

[in] Which measured T/C value corresponds to O=C(Cc1ccccn1)Cc1ccccn1 ?
[out] 96 % of control

[in] If you can, please state the reported T/C value of CCOC(=O)CCCCSCCCCC(=O)OCC .
[out] 105 % of control

[in] Using the record for O=[N+]([O-])c1ccc(N/N=C(\CCl)c2ccccc2)c([N+](=O)[O-])c1 , report its T/C.
[out] 97 % of control

Where these numbers come from: PubChem BioAssay AID256
